Where do the numbers come from? From paper PMC4620497.

Test: Pharmacokinetic assessment in rats
Format: in vivo, SD rats
Settings: SD, rat, plasma, po, 10 mg/kg, 10 mg/kg P.O., mean, read-out: Cmax
QUANTITY_KIND: Cmax (ng/mL)
State just the number; it will be interpreted in ng/mL.

stdin: Output measured Cmax for this item: CC(C)(C)c1cc(NC(=O)Nc2ccc(Oc3ncnc4[nH]ncc34)c(F)c2)no1 [SKLB-677]
stdout: 12300

====

Target: FLT3-D835Y (Homo sapiens, UniProt P36888, D835Y)
Assay: KINOMEscan kinase binding assay (Kd)
QUANTITY_KIND: Kd
Quick note: unit goes after the number.

stdin: Output measured Kd for this item: CC(C)(C)c1cc(NC(=O)Nc2ccc(Oc3ncnc4[nH]ncc34)c(F)c2)no1 [SKLB-677]
stdout: 1.3 nM

====

Target: PAK1 (Homo sapiens, UniProt Q13153)
Sequence (Q13153 whole entry): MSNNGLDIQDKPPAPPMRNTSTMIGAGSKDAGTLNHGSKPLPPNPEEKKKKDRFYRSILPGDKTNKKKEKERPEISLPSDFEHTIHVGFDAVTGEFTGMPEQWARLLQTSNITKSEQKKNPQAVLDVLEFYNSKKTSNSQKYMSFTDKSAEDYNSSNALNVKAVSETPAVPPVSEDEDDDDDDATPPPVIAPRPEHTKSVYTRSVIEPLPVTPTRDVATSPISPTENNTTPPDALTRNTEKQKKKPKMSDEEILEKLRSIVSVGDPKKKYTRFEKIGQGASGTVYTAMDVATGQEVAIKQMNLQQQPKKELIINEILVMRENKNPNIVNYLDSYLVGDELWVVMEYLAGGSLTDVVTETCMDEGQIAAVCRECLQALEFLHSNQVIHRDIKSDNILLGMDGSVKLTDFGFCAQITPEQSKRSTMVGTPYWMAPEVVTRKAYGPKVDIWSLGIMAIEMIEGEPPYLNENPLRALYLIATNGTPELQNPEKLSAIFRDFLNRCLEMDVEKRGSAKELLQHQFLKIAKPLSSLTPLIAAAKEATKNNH
QUANTITY_KIND: Kd

stdin: Output measured Kd for this item: CC(C)(C)c1cc(NC(=O)Nc2ccc(Oc3ncnc4[nH]ncc34)c(F)c2)no1
stdout: > 10 µM

====

Target: KIT (Homo sapiens)
Construct: DNA tag (qPCR read-out); purchased Ambit Biosciences (KINOMEscan service)
Sequence (P10721 26-976): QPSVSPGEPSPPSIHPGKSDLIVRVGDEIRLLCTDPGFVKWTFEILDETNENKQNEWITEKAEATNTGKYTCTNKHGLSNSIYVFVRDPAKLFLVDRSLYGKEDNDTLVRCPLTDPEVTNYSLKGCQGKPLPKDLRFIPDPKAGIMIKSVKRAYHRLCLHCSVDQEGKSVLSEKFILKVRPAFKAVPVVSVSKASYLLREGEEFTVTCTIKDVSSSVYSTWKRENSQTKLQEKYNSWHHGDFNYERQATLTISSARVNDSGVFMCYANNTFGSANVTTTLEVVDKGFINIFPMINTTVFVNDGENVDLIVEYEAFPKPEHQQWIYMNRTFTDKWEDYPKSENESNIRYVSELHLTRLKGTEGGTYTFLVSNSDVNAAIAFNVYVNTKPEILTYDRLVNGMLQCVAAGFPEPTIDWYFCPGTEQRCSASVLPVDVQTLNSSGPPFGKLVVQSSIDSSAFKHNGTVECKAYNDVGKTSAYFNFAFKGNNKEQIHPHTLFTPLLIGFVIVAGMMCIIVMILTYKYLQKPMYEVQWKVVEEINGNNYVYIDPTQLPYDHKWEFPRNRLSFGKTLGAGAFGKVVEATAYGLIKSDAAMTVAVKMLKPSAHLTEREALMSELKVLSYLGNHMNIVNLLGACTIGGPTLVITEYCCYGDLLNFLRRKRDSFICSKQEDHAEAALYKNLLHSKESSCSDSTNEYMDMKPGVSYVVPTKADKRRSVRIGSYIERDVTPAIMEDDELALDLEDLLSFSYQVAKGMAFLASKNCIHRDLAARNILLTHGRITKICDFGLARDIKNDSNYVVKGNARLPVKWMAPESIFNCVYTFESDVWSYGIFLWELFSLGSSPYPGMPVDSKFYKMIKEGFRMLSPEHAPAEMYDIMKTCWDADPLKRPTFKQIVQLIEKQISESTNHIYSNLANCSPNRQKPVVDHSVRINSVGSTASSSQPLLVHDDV
Assay: KINOMEscan kinase binding assay (Kd)
QUANTITY_KIND: pKd
Note: pKd values are expressed as the negative base-10 logarithm of concentration in M.

stdin: Output measured pKd for this item: CC(C)(C)c1cc(NC(=O)Nc2ccc(Oc3ncnc4[nH]ncc34)c(F)c2)no1
stdout: 8.51

====

Test system: MV4-11
Test: MTT cell viability assay
Conditions: read-out: Cell viability IC50; MV4-11; 72 h
QUANTITY_KIND: pIC50
Note: pIC50 values are expressed as the negative base-10 logarithm of concentration in M.

stdin: Output measured pIC50 for this item: CC(C)(C)c1cc(NC(=O)Nc2ccc(-c3cn4c(n3)sc3cc(OCCN5CCOCC5)ccc34)cc2)no1 [AC220, reference compound]
stdout: 9.54

====

Test system: HeLa
Experiment: MTT cell viability assay
Conditions: Homo sapiens, 72 h
QUANTITY_KIND: IC50 (µM)
State just the number; it will be interpreted in µM.

stdin: Output measured IC50 for this item: CC(C)(C)c1cc(NC(=O)Nc2ccc(Oc3ncnc4[nH]ncc34)c(F)c2)no1 [SKLB-677]
stdout: 9.45

====

Assay: Pharmacokinetic assessment in rats
Format: in vivo, SD rats
Settings: SD, rat, plasma, iv, 10 mg/kg, 10 mg/kg I.V., mean, read-out: AUC(0-36h)
QUANTITY_KIND: AUC(0-t) (µg·h/mL)
State just the number; it will be interpreted in µg·h/mL.

stdin: Output measured AUC(0-t) for this item: CC(C)(C)c1cc(NC(=O)Nc2ccc(Oc3ncnc4[nH]ncc34)c(F)c2)no1
stdout: 272

====

Tested on: MDA-MB-231
Assay: MTT cell viability assay
Details: Homo sapiens, MDA-MB-231, 72 h
QUANTITY_KIND: IC50

stdin: Output measured IC50 for this item: CC(C)(C)c1cc(NC(=O)Nc2ccc(Oc3ncnc4[nH]ncc34)c(F)c2)no1 [SKLB-677]
stdout: > 10 µM

====

Target: CHEK1 (Homo sapiens, UniProt O14757)
Sequence (O14757 1-476): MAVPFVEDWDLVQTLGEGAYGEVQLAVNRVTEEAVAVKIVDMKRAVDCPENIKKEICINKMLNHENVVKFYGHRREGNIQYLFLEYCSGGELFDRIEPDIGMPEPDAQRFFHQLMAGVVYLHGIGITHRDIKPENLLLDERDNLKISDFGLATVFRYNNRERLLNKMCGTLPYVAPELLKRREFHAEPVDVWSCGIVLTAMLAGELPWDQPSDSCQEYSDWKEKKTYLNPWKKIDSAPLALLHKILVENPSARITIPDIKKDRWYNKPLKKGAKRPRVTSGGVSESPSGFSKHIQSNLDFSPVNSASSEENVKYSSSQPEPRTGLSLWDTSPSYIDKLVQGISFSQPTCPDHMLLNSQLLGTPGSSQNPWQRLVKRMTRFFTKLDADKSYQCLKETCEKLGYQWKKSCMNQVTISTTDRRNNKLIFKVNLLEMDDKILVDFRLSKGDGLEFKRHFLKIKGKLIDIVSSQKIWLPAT
QUANTITY_KIND: Kd

stdin: Recall the reported Kd of CC(C)(C)c1cc(NC(=O)Nc2ccc(Oc3ncnc4[nH]ncc34)c(F)c2)no1 [SKLB-677] on CHEK1 (Homo sapiens, UniProt O14757) and write it down.
stdout: > 10 µM
